Each recorded value in this set is attributed to the supplement of paper PMC10567573.

B1: C22orf15 (parent)
chain: ITQSWQVSVRVQPRGRAHLLPNPY

# Variants of: B1
# methodSummary: protein stability index of a GFP-peptide fusion (GPS, HEK-293T) (PSI 1-6); higher = more stable;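 further: lentivirally expressed fusions sorted by FACS into six bins by GFP to DsRed ratio, PSI derived from sequencing read proportions per bin multiplied by bin number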
# testContext: c terminus: a fixed tail appended

variantLabel	protein stability index
P21G	1.76
P23A	1.34
W5P	2.56
P13Q	2.21
V9M	1.34
L19R	2.43
Q12N	2.98
L20C	1.97
R16W	2.89
Q12C	1.77
V7F	2.22
T2H	1.45
V9K	1.91
A17D	1.76
L20V	4.25
V7M	2.46
W5F	2.29
V9N	2.45
V7P	2.7
R14T	1.05
L20K	1.01
